- assayInfo: Plasma pharmacokinetics, non-compartmental analysis
- Format: in vivo, human
- conditionLabel: human, plasma, oral, 40 mg, tmax ss, Median (n) (range), following BID dosing; 40 mg BID solution
propertyName: Tmax (min)

compound: COc1ccc(-c2ccc3c(N4CCOC[C@@H]4C)nc(N4CCOC[C@@H]4C)nc3n2)cc1CO [AZD8055]
unitInfo: min
readoutValue: 15

====

- assayInfo: Plasma pharmacokinetics, non-compartmental analysis
- Assay type: in vivo, human
- conditionLabel: human, plasma, oral, 60 mg, tmax, Median (range), single dose; 60 mg tablet (n=7)

chemSmiles: COc1ccc(-c2ccc3c(N4CCOC[C@@H]4C)nc(N4CCOC[C@@H]4C)nc3n2)cc1CO
Tmax, min: 30

====

- assayInfo: Plasma pharmacokinetics, non-compartmental analysis
- Format: in vivo, human
- conditionLabel: human, plasma, oral, 10 mg, AUCss, Gmean (n) (range), following BID dosing; 10 mg BID solution
propertyName: AUC (ng·h/mL)

chemSmiles: COc1ccc(-c2ccc3c(N4CCOC[C@@H]4C)nc(N4CCOC[C@@H]4C)nc3n2)cc1CO
readoutValue: 23

====

- assayInfo: Plasma pharmacokinetics, non-compartmental analysis
- Format: in vivo, human
- conditionLabel: human, plasma, oral, 10 mg, tmax, Median (range), single dose; 10 mg solution (n=5)

chemSmiles: COc1ccc(-c2ccc3c(N4CCOC[C@@H]4C)nc(N4CCOC[C@@H]4C)nc3n2)cc1CO
unitInfo: min
Tmax: 30

====

- assayInfo: Plasma pharmacokinetics, non-compartmental analysis
- Type: in vivo, human
- conditionLabel: human, plasma, oral, 90 mg, AUC, Gmean (range), single dose; 90 mg tablet (n=11)

compound: COc1ccc(-c2ccc3c(N4CCOC[C@@H]4C)nc(N4CCOC[C@@H]4C)nc3n2)cc1CO [AZD8055]
AUC [µg·h/mL]: 0.134

====

- assayInfo: Plasma pharmacokinetics, non-compartmental analysis
- Assay type: in vivo, human
- conditionLabel: human, plasma, oral, 40 mg, AUC0–12, Gmean (range), single dose; 40 mg tablet (n=7)
propertyName: AUC(0-t) (ng·h/mL)

chemSmiles: COc1ccc(-c2ccc3c(N4CCOC[C@@H]4C)nc(N4CCOC[C@@H]4C)nc3n2)cc1CO
propertyName: AUC(0-t)
readoutValue: 124

====

- assayInfo: Plasma pharmacokinetics, non-compartmental analysis
- Assay type: in vivo, human
- conditionLabel: human, plasma, oral, 40 mg, tmax ss, Median (n) (range), following BID dosing; 40 mg BID tablet
propertyName: Tmax (h)

chemSmiles: COc1ccc(-c2ccc3c(N4CCOC[C@@H]4C)nc(N4CCOC[C@@H]4C)nc3n2)cc1CO
readoutValue: 1

====

- assayInfo: Plasma pharmacokinetics, non-compartmental analysis
- Type: in vivo, human
- conditionLabel: human, plasma, oral, 20 mg, tmax, Median (range), single dose; 20 mg solution (n=3)
propertyName: Tmax (min)

compound: COc1ccc(-c2ccc3c(N4CCOC[C@@H]4C)nc(N4CCOC[C@@H]4C)nc3n2)cc1CO [AZD8055]
readoutValue: 30

====

- assayInfo: Plasma pharmacokinetics, non-compartmental analysis
- Assay type: in vivo, human
- conditionLabel: human, plasma, oral, 10 mg, t1/2, Amean (range), single dose; 10 mg solution (n=5)

chemSmiles: COc1ccc(-c2ccc3c(N4CCOC[C@@H]4C)nc(N4CCOC[C@@H]4C)nc3n2)cc1CO
half-life (h): 2.43
